# Test system: isogenic wildtype mIMCD-3 cells
# assay-overview: Luminescence-based ATP-dependent cell viability assay (CellTiter-Glo 2.0), dose-response, isogenic wildtype counter screen
# protocol-conditions: Mus musculus, mIMCD3, 72 h, read-out: IC50 wildtype (µM)
readout-kind: IC50 (µM)
Report the figure in µM without appending any unit label.

INSERT INTO measurements (compound, target_entity, reading_unit, measurement) VALUES
  ('COc1cc(NC(=O)c2ccc([N+](=O)[O-])o2)cc(C(F)(F)F)c1 [Number 9]', 'isogenic wildtype mIMCD-3 cells', 'µM', 18.4);

Attention now shifts to the item below.
Quick one: IC50 of O=C1C2=C(C(=O)c3ccccc31)[C@H]1Oc3ccccc3[C@H]1CO2 [Number 15] ?
4.45

###

log10 IC50 for assorted molecules
# Tested on: isogenic wildtype mIMCD-3 cells
# assay-overview: Luminescence-based ATP-dependent cell viability assay (CellTiter-Glo 2.0), dose-response, isogenic wildtype counter screen
# protocol-conditions: Mus musculus, mIMCD3; isogenic wildtype mIMCD-3 control cells; 72 hours compound incubation; read-out: IC50 wildtype
Response schema: value (number) is log10 of IC50 in units of µM.

A selection of reference data follows.
INSERT INTO measurements (chem_smiles, measurement) VALUES
  ('N#CC(C#N)=NNc1cccc(Cl)c1', 0.63),
  ('Cn1c(=O)c(F)c(Nc2ccc(I)cc2F)c2c(=O)n(C[C@@H](O)CO)cnc21', 1.62),
  ('CN(C)S(=O)(=O)c1cc(NC(=O)c2ccc([N+](=O)[O-])o2)ccc1Cl', 1.05),
  ('N#CC(C#N)=NNc1ccc(OC(F)(F)F)cc1', 0.61),
  ('O=c1c2ccccc2nc(/C=C/c2ccc([N+](=O)[O-])o2)n1-c1ccc(O)cc1', 0.65);

Quick one: log10 IC50 of `O=C(NOCC1CC1)c1ccc(F)c(F)c1Nc1ccc(I)cc1Cl` ?
1.01

Quick one: log10 IC50 of `Cc1nc(Nc2ncc(C(=O)Nc3c(C)cccc3Cl)s2)cc(N2CCN(CCO)CC2)n1` ?
0.57

Quick one: log10 IC50 of `Cn1c(/C=C/c2ccc([N+](=O)[O-])o2)nc2ccccc2c1=O` ?
0.60

###

# Tested on: isogenic wildtype mIMCD-3 cells
# assay-overview: Luminescence-based ATP-dependent cell viability assay (CellTiter-Glo 2.0), dose-response, isogenic wildtype counter screen
# protocol-conditions: Mus musculus, mIMCD3; isogenic wildtype mIMCD-3 control cells; 72 hours compound incubation; read-out: IC50 wildtype
pIC50: −log10 of the molar value.
Label scheme for pIC50: lower than 5 is 0 (no), 5 and above is 1 (yes).

INSERT INTO assay_data (compound, assigned_label) VALUES
  ('S=C(SSC(=S)N1CCOCC1)N1CCOCC1 [Number 21, Dimorpholinethiuram disulfide]', '0 (no)'),
  ('CC(C)c1cc(N2CCCCC2)nc(-c2ccccn2)n1', '0 (no)'),
  ('CC(=O)N(C)c1ccc(Nc2nc(NC3CCC3)c3[nH]cnc3n2)cc1', '1 (yes)');

Let us examine a further case.
In plain terms: is recorded pIC50 at least 5 for `COc1ccc(Cc2c(N)nc(-c3ccccn3)nc2N)cc1` ?
0 (no)

###

# Tested on: monoclonal PKD1 KO mIMCD-3 cell line (clone #1)
# assay-overview: Luminescence-based ATP-dependent cell viability assay (CellTiter-Glo 2.0), dose-response, PKD1 knockout clone #1
# Set-up: species or system mouse
# protocol-conditions: Mus musculus, mIMCD3, 72 h, read-out: IC50 PKD1-/- (clone 1) (µM)
IC50 for assorted compounds
Report the figure in µM without appending any unit label.

INSERT INTO results (chem_smiles, target_entity, reading_unit, measurement) VALUES
  ('O=C(NOC[C@H](O)CO)c1ccc(F)c(F)c1Nc1ccc(I)cc1F', 'monoclonal PKD1 KO mIMCD-3 cell line (clone #1)', 'µM', 80);

Attention now shifts to the item below.
Quick one: IC50 of `O=C1C2=C(C(=O)c3ccccc31)[C@H]1Oc3ccccc3[C@H]1CO2` ?
3.54
